- measurement_description: Stability of cannabinoid and Vitamin E components of Beverage 1 (AB White) stored at 8° C. and 21-25° C., LCMSMS over 570 days
- Assay type: physicochemical
- run_conditions: beverage stored at 8° C., day 9
Each record here notes measured Stability in AB White, 8° C. (content by LCMSMS).
reported_metric: Stability in AB White, 8° C. (content by LCMSMS) (µg/mL)

* C=C(C)[C@@H]1CCC(C)=C[C@H]1c1c(O)cc(CCC)cc1O | 0.146
* CCCc1cc(O)c2c(c1)OC(C)(C)[C@@H]1CCC(C)=C[C@@H]21 [THCV, delta-9-tetrahydrocannabivarin] | 3.61
* C=C(C)[C@@H]1CCC(C)=C[C@H]1c1c(O)cc(CCCCC)cc1O [CBD, cannabidiol, reference compound] | 28.44
* C=C(C)[C@@H]1CCC(C)=C[C@H]1c1c(O)cc(CCCCC)c(C(=O)O)c1O | 1.73
* CCCCCc1cc(O)c2c(c1)OC(C)(C)c1ccc(C)cc1-2 | 2.76
* CCCCCc1cc(O)c2c(c1)OC1(C)CCC3C1C2C3(C)C (stereo not shown) | 0.535
* CCCCCc1cc(O)c(C/C=C(\C)CCC=C(C)C)c(O)c1 | 4.89
* CCCCCc1cc2c(c(O)c1C(=O)O)[C@@H]1C=C(C)CC[C@H]1C(C)(C)O2 [D9 THCA, delta-9-tetrahydrocannabinolic acid] | 0.937
* CCCCCc1cc(O)c2c(c1)OC(C)(C)[C@@H]1CCC(C)=C[C@@H]21 [D9 THC, delta-9-tetrahydrocannabinol, reference compound] | 12.14
* CCCCCc1cc(O)c2c(c1)OC(C)(CCC=C(C)C)C=C2 (stereo not shown) | 0.319
